Test system: Saccharomyces cerevisiae BY4741 SeMeCo community
Assay: z-score of subpopulation abundance vs DMSO median, subpopulation auxotrophic for LM; higher = larger share of this subpopulation than in DMSO controls
Details: 10 µM; 24 h; SM minimal medium; subpopulation (auxotrophy): LM
Where a name gives a salt, the structure may show the parent alone.
result type: z-score of subpopulation abundance
Respond with the number and no other words.

Known results for compounds:
compound	reading
CO/N=C(/C(=O)N[C@@H]1C(=O)N2C(C(=O)OCOC(=O)C(C)(C)C)=C(C)CS[C@H]12)c1csc(N)n1 [Cefetamet pivoxil hydrochloride]	0.52
COc1cc(NS(=O)(=O)c2ccc(N)cc2)nc(OC)n1 [SulfadiMethoxine sodium]	-0.45
C#C[C@]1(O)CC[C@H]2[C@@H]3CCC4=CC(=O)CC[C@@H]4[C@H]3CC[C@@]21CC	-0.89
Cn1c(=O)c2c(ncn2CC(O)CO)n(C)c1=O (centres undefined)	-0.74
OC(c1ccccc1)(c1ccccc1)C12CC[N+](CCOCc3ccccc3)(CC1)CC2 [Umeclidinium bromide]	-0.42

Tell me measured z-score of subpopulation abundance for `Cc1cc(O)cc(C)c1Cl` please.
0.41

Tell me measured z-score of subpopulation abundance for O=C1NCC2(CCN(CCc3ccccc3)CC2)O1 [Fenspiride HCl] please.
-0.15

Tell me measured z-score of subpopulation abundance for CCC(=O)Oc1ccc2c(c1)CCC1C2CCC2(C)C(OC(=O)CC)CCC12 (stereo not drawn) [Estradiol dipropionate(17-Beta-Estradiol-3,17-Dipropionate)] please.
-0.31

Tell me measured z-score of subpopulation abundance for O=C(c1ccccc1)c1ccc2n1CCC2C(=O)O (centres undefined) [Ketorolac tromethamine salt] please.
-0.1

Tell me measured z-score of subpopulation abundance for CC(=O)O[C@]1(C(C)=O)CC[C@H]2[C@@H]3C[C@H](C)C4=CC(=O)CC[C@]4(C)[C@H]3CC[C@@]21C [Medroxyprogesterone acetate] please.
-0.1

Tell me measured z-score of subpopulation abundance for `CCCCCCCCCC(=O)N[C@@H](Cc1c[nH]c2ccccc12)C(=O)N[C@H](CC(N)=O)C(=O)N[C@@H](CC(=O)O)C(=O)N[C@@H]1C(=O)NCC(=O)N[C@@H](CCCN)C(=O)N[C@@H](CC(=O)O)C(=O)N[C@H](C)C(=O)N[C@@H](CC(=O)O)C(=O)NCC(=O)N[C@H](CO)C(=O)N[C@@H]([C@H](C)CC(=O)O)C(=O)N[C@@H](CC(=O)c2ccccc2N)C(=O)O[C@@H]1C` please.
1.51

Tell me measured z-score of subpopulation abundance for NCCNc1ccc(NCCN)c2c1C(=O)c1ccncc1C2=O [Pixantrone Maleate] please.
-5.3

Tell me measured z-score of subpopulation abundance for Fc1ccc(C(c2ccc(F)cc2)N2CCN(C/C=C/c3ccccc3)CC2)cc1 [Flunarizine 2HCl] please.
1.5

Tell me measured z-score of subpopulation abundance for N[C@@H](CCC(=O)O)C(=O)O [(S)-Glutamic acid] please.
0.15

Tell me measured z-score of subpopulation abundance for O=C(Cn1cnnn1)N[C@@H]1C(=O)N2C(C(=O)O)=C(CSc3nncs3)CS[C@H]12 [Ceftezole sodium] please.
0.18

Tell me measured z-score of subpopulation abundance for NC(=O)OCC(COC(N)=O)c1ccccc1 [Felbamate] please.
-1.27
